Assay remarks: Nonclinical pharmacokinetics in rats
Set-up: species or system rat
Condition label: male, in vivo, 10000 ng/kg; rat IV bolus, M, 10,000 ng/kg
Experimental readout: AUC(0-inf) (ng·h/mL)
Give bare numbers, in ng·h/mL.

Name the reported AUC(0-inf) value associated with the substance H-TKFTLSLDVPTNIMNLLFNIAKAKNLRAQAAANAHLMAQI-NH2 [SEQ ID NO: 1]
1.5

---

Study target: human CRHR2 (Homo sapiens)
Construct: expressed in transfected cells
Sequence (Q13324 whole entry): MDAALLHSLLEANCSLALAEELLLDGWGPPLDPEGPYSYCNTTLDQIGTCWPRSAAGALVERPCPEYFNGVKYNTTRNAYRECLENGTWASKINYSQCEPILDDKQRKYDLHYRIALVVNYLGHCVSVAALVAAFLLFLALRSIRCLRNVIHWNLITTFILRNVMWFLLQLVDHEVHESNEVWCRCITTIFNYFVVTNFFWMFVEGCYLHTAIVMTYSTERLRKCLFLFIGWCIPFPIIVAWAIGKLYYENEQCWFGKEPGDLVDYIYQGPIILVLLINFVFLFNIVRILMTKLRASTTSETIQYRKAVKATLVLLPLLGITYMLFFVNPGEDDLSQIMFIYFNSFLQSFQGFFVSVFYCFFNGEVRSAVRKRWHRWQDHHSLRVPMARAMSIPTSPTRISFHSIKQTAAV
Assay remarks: cAMP assay, h-CRHR2 transfected SK-N-MC cells
Format: cell-based
Condition label: Table 13; cysteine mutation, N-ethylmaleimide capping, pegylation; read-out: pA50 (converted)
Where no end group is shown, it is not given here.
So I've got a bunch of substances here, and I need their EC50 values.

Below, 5 substances whose answers are already recorded.
Substance: TKFTLCLDVPTNIMNLLFNIAKAKNLRAQAAANAHLMAQI-NH2 [SEQ ID NO: 7]
EC50: 25.1 nM

Substance: TKFCLSLDVPTNIMNLLFNIAKAKNLRAQAAANAHLMAQI-NH2 [SEQ ID NO: 5]
EC50: 1.17 nM

Substance: H-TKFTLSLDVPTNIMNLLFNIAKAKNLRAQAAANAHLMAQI-NH2 [SEQ ID NO: 1]
EC50: 0.182 to 0.339 nM

Substance: H-TKFTLSLDVPTNIMCLLFNIAKAKNLRAQAAANAHLMAQI-NH2 [SEQ ID NO: 16]
EC50: 1.17 nM

Substance: TKFTLSLDVPTNIMNLLFNIAKAKNLRAQAAANAHLMAQC-NH2 [SEQ ID NO: 41]
EC50: 35.5 nM

Kindly give each listed record's EC50.
1. H-TKFTLSLDVPTNIMNLLCNIAKAKNLRAQAAANAHLMAQI-NH2 [SEQ ID NO: 19]
2. TKFTLSLCVPTNIMNLLFNIAKAKNLRAQAAANAHLMAQI-NH2 [SEQ ID NO: 9]
3. TKFTLSLDVPTNIMNLLFNIAKAKNLRAQCAANAHLMAQI-NH2 [SEQ ID NO: 31]
4. TKFTCSLDVPTNIMNLLFNIAKAKNLRAQAAANAHLMAQI-NH2 [SEQ ID NO: 6]
5. TKFTLSLDVPTNIMNLLFNIAKAKNLRAQAAANACLMAQI-NH2 [SEQ ID NO: 36]

9.77 nM
15.8 nM
9.55 nM
0.851 nM
0.794 nM

Could I get EC50 for every one of these entries?
1. CKFTLSLDVPTNIMNLLFNIAKAKNLRAQAAANAHLMAQI-NH2 [SEQ ID NO: 2]
2. TKFTLSLDVPTNIMNLLFNIAKAKNLRAQAAANAHCMAQI-NH2 [SEQ ID NO: 37]
3. H-TKFTLSLDVPTNCMNLLFNIAKAKNLRAQAAANAHLMAQI-NH2 [SEQ ID NO: 14]

1. 1.07 nM
2. 2.63 nM
3. ~45.7 nM

Please look at the items below and tell me EC50 for each one, in order.
1. TKFTLSCDVPTNIMNLLFNIAKAKNLRAQAAANAHLMAQI-NH2 [SEQ ID NO: 8]
2. TKFTLSLDVPTNIMNLLFNIAKAKNCRAQAAANAHLMAQI-NH2 [SEQ ID NO: 27]
3. TKFTLSLDVPTNIMNLLFNIAKAKCLRAQAAANAHLMAQI-NH2 [SEQ ID NO: 26]
4. TKFTLSLDCPTNIMNLLFNIAKAKNLRAQAAANAHLMAQI-NH2 [SEQ ID NO: 10]
5. TKFTLSLDVPTNICNLLFNIAKAKNLRAQAAANAHLMAQI-NH2 [SEQ ID NO: 15]

["~151 nM", "1.74 nM", "0.363 nM", "5.25 nM", "2.09 nM"]

---

Assay remarks: Nonclinical pharmacokinetics in cynomolgus monkeys
Condition label: male, cynomolgus monkey, in vivo; cyno IV infusion 3 hours, M, 33.3 ng/kg/min; read-out: CL
Experimental readout: clearance (mL/min/kg)
Give bare numbers, in mL/min/kg.

Return reported clearance; argument: H-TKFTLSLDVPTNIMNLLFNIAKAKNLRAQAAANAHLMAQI-NH2 [SEQ ID NO: 1]
29.2

---

Assay remarks: Human pharmacokinetics, heart failure subjects, 7.5-hour continuous ascending dose IV infusion
Condition label: in vivo, infusion rate 1/3/9 ng/kg/min, median, N = 2
Protocol: In heart failure subjects following a 7.5-hour continuous ascending dose IV infusion of h-SCP (SEQ ID NO:1) noncompartmental pharmacokinetic analyses were performed on plasma concentrations of h-SCP (SEQ ID NO:1). The pharmacokinetics of h-SCP (SEQ ID NO:1) in heart failure subjects appeared to be similar to that of healthy subjects. […] Within 30 minutes, plasma h-SCP (SEQ ID NO:1) was reduced to equal or less than 20% of the h-SCP (SEQ ID NO:1) level at the end of the infusion (FIG. 16B).
Experimental readout: Tmax (h)
Numbers only, in h.

Return reported Tmax; argument: H-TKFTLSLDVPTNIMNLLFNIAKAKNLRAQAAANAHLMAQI-NH2 [SEQ ID NO: 1]
7.04

---

Assay remarks: Nonclinical pharmacokinetics in rats
Set-up: species or system rat
Condition label: female, in vivo; rat IV infusion 3 hours, F, 83.3 ng/kg/min
Experimental readout: Cmax (ng/mL)
One number for each entry, in ng/mL.

# input substance: H-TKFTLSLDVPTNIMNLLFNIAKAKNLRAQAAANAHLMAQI-NH2 [SEQ ID NO: 1] ; wanted: its Cmax
0.906

---

Assay remarks: Human pharmacokinetics, healthy subjects, 7.5-hour continuous ascending dose IV infusion
Assay type: in vivo
Condition label: human, in vivo, healthy subjects, infusion rate 18/54/72 ng/kg/min, mean, N = 3
Experimental readout: AUC(0-inf) (ng·h/mL)
Numbers only, in ng·h/mL.

Consider the substance shown here: H-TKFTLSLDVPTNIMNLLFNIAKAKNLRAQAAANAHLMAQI-NH2 [SEQ ID NO: 1] What is its recorded AUC(0-inf)?
55.9

---

Assay remarks: Human pharmacokinetics, healthy subjects, 7.5-hour continuous ascending dose IV infusion
Assay type: in vivo
Condition label: human, in vivo, healthy subjects, infusion rate 1/3/9 ng/kg/min, mean, N = 4
Experimental readout: AUC(0-inf) (ng·h/mL)
Give bare numbers, in ng·h/mL.

What does the data say about its AUC(0-inf)? Entry: H-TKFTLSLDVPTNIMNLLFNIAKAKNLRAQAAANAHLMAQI-NH2 [SEQ ID NO: 1]
7.41

---

Assay remarks: Human pharmacokinetics, healthy subjects, 24- or 72-hour infusion of 54 ng/kg/min
Condition label: male, in vivo, 54 ng/kg, healthy subjects, 54 ng/kg/min, 72 Hours Male, median, N = 7
Experimental readout: Tmax (h)
Give bare numbers, in h.

Give its Tmax value. Item: H-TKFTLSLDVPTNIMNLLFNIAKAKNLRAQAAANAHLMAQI-NH2 [SEQ ID NO: 1]
24

---

Assay remarks: Nonclinical pharmacokinetics in dogs
Parameters: species or system dog
Condition label: male, in vivo; dog IV infusion 3 hours, M, 16.7 ng/kg/min; read-out: Cmax
Experimental readout: Cmax (ng/mL)
Give bare numbers, in ng/mL.

Data request, read-out Cmax, for H-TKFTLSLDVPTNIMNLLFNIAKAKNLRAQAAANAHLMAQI-NH2 [SEQ ID NO: 1]
5.05

---

Assay remarks: Nonclinical pharmacokinetics in cynomolgus monkeys
Condition label: female, cynomolgus monkey, in vivo; cyno IV infusion 3 hours, F, 100 ng/kg/min
Experimental readout: Cmax (ng/mL)
Numbers only, in ng/mL.

What value of Cmax has been reported for the following substance? H-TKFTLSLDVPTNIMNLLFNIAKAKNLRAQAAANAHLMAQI-NH2 [SEQ ID NO: 1]
3.16

---

Assay remarks: Human pharmacokinetics, healthy subjects, 7.5-hour continuous ascending dose IV infusion
Type: in vivo
Condition label: human, in vivo, healthy subjects, infusion rate 9/18/36 ng/kg/min, mean, N = 5; read-out: CL (converted)
Experimental readout: clearance (mL/min/kg)
Numbers only, in mL/min/kg.

Which clearance value belongs to H-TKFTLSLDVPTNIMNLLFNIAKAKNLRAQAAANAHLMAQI-NH2 [SEQ ID NO: 1] ?
5.5

---

Assay remarks: Nonclinical pharmacokinetics in rats
Parameters: species or system rat
Condition label: male, in vivo, 3000 ng/kg; rat IV bolus, M, 3,000 ng/kg; read-out: CL
Procedure: A sandwich immunoassay was developed using an affinity purified goat polyclonal antibody, specific to h-SCP that was pre-coated onto a microplate with integrated electrodes. h-SCP molecules present in the sample will bind to the capture polyclonal antibody coated on the plate. […] This conjugated antibody will bind to the h-SCP molecules captured on the microplate and the quantity of analyte was determined by electrochemiluminescence. […]
Experimental readout: clearance (mL/min/kg)
One number for each entry, in mL/min/kg.

Give its clearance value. Item: H-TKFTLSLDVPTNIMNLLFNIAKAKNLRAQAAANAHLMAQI-NH2 [SEQ ID NO: 1]
109
